Target: glutathione S-transferase (GST)-fused full-length human Syk protein (Homo sapiens)
Construct: (GST)-fused full-length human Syk protein; GST (glutathione S-transferase); purchased Carna Biosciences
Experiment: Syk enzyme assay
Type: biochemical
Details: Syk enzyme assay, Test Example 1; read-out: IC50 of Syk-inhibitory activity
Description: A glutathione S-transferase (GST)-fused full-length human Syk protein (Carna Biosciences), which had been generated using a Baculovirus expression system, was used in the Syk enzyme assay. 15 μl of a reaction solution (1.2 ng Syk, 20 mM HEPES, 10 mM MgCl2, 50 mM NaCl, 2 mM DTT, 0.05% BSA, pH 7.0) containing a Syk protein and a predetermined concentration of a test compound was shaken for 2 minutes, and it was then left at rest at room temperature for 13 minutes. […]
pIC50: −log10 of the molar value.
measurement_name: pIC50

Consider the following illustrative entries.
>>> df
                                   compound   measurement
0  NC(=O)c1cc(F)c(NC2CCCCC2N)nc1Nc1cncc(NC(=O)c2csc3ccccc23)c1 (stereo not shown)  7.30 to 8.00
1  NC(=O)c1cc(F)c(N[C@@H]2CCCC[C@@H]2N)nc1Nc1cccnc1 (relative stereo)  7.30 to 8.00
2  CCC[C@@H](Nc1nc(Nc2cccc3ncccc23)c(C(N)=O)cc1F)[C@H](C)N        > 8.00
3  CCCOc1cc(Nc2nc(N[C@H](CCC)[C@H](C)N)c(F)cc2C(N)=O)ccn1        > 8.00
4  C[C@H](N)[C@@H](C)Nc1nc(Nc2ccc3cccnc3c2)c(C(N)=O)cc1F (racemic)        > 8.00

pIC50 reading for NC(=O)c1cc(F)c(N[C@@H]2CCCC[C@@H]2N)nc1Nc1ccc2cnccc2c1 (relative stereo) : > 8.00

pIC50 reading for COCCn1ncc2cc(Nc3nc(N[C@H](C)[C@H](C)N)c(F)cc3C(N)=O)ccc21 (racemic) : 7.30 to 8.00
